test system: P-gp; assay: Bidirectional transport in MDCKⅡ-MDR1 cell monolayers; assay type: in vitro ADME; settings: dog, MDCK-MDR1, with PSC833 5 µmol/L; MDCKⅡ-MDR1, PSC833 5 µmol/L; read-out: efflux ratio (ER) in the presence of PSC833
Reported values of efflux ratio at 120 min for individual entries
// return just the number, without any unit appended

compound: COc1cc(O)cc2oc(=O)c(N3CCN(C)CC3)c(C)c12
efflux ratio at 120 min: 1.1

We next turn to a different compound, shown below.
Q: # get_value(readout='efflux ratio at 120 min', item= C[C@H]1O[C@@H](O[C@H]2[C@@H](O)C[C@H](O[C@H]3[C@@H](O)C[C@H](O[C@H]4CC[C@@]5(C)[C@H](CC[C@@H]6[C@@H]5C[C@@H](O)[C@]5(C)[C@@H](C7=CC(=O)OC7)CC[C@]65O)C4)O[C@@H]3C)O[C@@H]2C)C[C@H](O)[C@@H]1O [digoxin, reference compound] )
Result: 1.41

* * *

assay: Pharmacokinetics in rats with cerebral microdialysis; assay type: in vivo; conditions: plasma (free concentration); free concentration, after iv IMM-H004G 10 mg/kg, rat
value kind: concentration at 2 min (µM)

(P) COc1cc(O)cc2oc(=O)c(N3CCN(C)CC3)c(C)c12
(Q) COc1cc(OC2OC(C(=O)O)C(O)C(O)C2O)cc2oc(=O)c(N3CCN(C)CC3)c(C)c12 (centres unmarked) [IMM-H004G]
Q: Thinking about recorded concentration at 2 min values, which is higher, P or Q ? Response format: the label of the selected entry.
Result: Q
